Each entry below carries its reported chemical recovery by SPE of plasma.
- assay overview: chemical recovery by SPE of plasma after PDMS sampling; higher = better extraction;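 note: over 400 spiked chemicals quantified by LC-HRMS or GC-HRMS via internal standard calibration, recovery relative to spike mix added to unspiked plasma extract to correct matrix effects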
- measurement context: pooled human plasma; extraction method: HLB SPE of plasma after PES; equilibration time (d): 3
The figure you give is taken to be in %; do not add the unit.

Annotate the compound COC[P+](c1ccccc1)(c1ccccc1)c1ccccc1 [(Methoxymethyl)triphenylphosphonium] with its measured chemical recovery by SPE of plasma.
50.4

Annotate the compound CC(C)NCC(O)COc1cccc2ccccc12 (stereo unspecified) [Propranolol] with its measured chemical recovery by SPE of plasma.
9.06

Annotate the compound O=c1[nH]nc(C(F)(F)F)s1 [Thiadone] with its measured chemical recovery by SPE of plasma.
47.9

Annotate the compound O=C(O)COCCN1CCN(C(c2ccccc2)c2ccc(Cl)cc2)CC1 (stereo unspecified) [Cetirizine] with its measured chemical recovery by SPE of plasma.
52.3
